// data source = paper PMC8369502

- System: CT (control hiPS-CMs without RA, ventricular-like)
- experiment_summary: High-throughput membrane potential recording (FluoVolt, FDSS/μCell) in CT
- Type: cell-based, human
- condition_summary: concentration range as stated in the source

{"molecule": "COc1ccc([C@@H]2Sc3ccccc3N(CCN(C)C)C(=O)[C@@H]2OC(C)=O)cc1", "beating rate (in words)": "dose-dependent increases"}
{"molecule": "COc1ccc(CCN(C)CCCC(C#N)(c2ccc(OC)c(OC)c2)C(C)C)cc1OC (centres unmarked)", "beating rate (in words)": "dose-dependent increases"}
{"molecule": "Cc1cccc(CCN2CCC(C(=O)c3ccc(NS(C)(=O)=O)cc3)CC2)n1", "beating rate (in words)": "dose-dependent decrease"}
{"molecule": "CC(C)NCC(O)COc1cccc2ccccc12 (centres unmarked)", "beating rate (in words)": "dose-dependent decrease"}

---

- Test system: CT (control hiPS-CMs without RA, ventricular-like)
- experiment_summary: High-throughput membrane potential recording (FluoVolt, FDSS/μCell) in CT
- Format: cell-based, human
- condition_summary: concentration range as stated in the source
recorded_endpoint: falling slope of membrane potential (in words)

{"compound": "COC(=O)C1=C(C)NC(C)=C([N+](=O)[O-])C1c1ccccc1C(F)(F)F (stereo not shown) [Bay K 8644]", "measured": "dose-dependent decrease"}
{"compound": "CC(C)NCC(O)COc1cccc2ccccc12 (stereo not shown) [Propranolol]", "measured": "dose-dependent decrease"}
{"compound": "O=C1NC(=O)C(c2ccccc2)(c2ccccc2)N1 [Phenytoin]", "measured": "increase"}
{"compound": "COc1ccc([C@@H]2Sc3ccccc3N(CCN(C)C)C(=O)[C@@H]2OC(C)=O)cc1 [Diltiazem]", "measured": "dose-dependent increases"}
{"compound": "Cc1cccc(CCN2CCC(C(=O)c3ccc(NS(C)(=O)=O)cc3)CC2)n1 [E-4031]", "measured": "dose-dependent decrease"}
{"compound": "COc1ccc(CCN(C)CCCC(C#N)(c2ccc(OC)c(OC)c2)C(C)C)cc1OC (stereo not shown) [Verapamil]", "measured": "dose-dependent increases"}
{"compound": "NC(=O)N1c2ccccc2C=Cc2ccccc21 [Carbamazepine]", "measured": "increase"}

---

- Test system: CT (control hiPS-CMs without RA, ventricular-like)
- experiment_summary: High-throughput membrane potential recording (FluoVolt, FDSS/μCell) in CT
- Assay type: cell-based, human
- condition_summary: concentration range as stated in the source
recorded_endpoint: rising slope of membrane potential (in words)

{"molecule": "O=C1NC(=O)C(c2ccccc2)(c2ccccc2)N1", "measured": "dose-dependent decrease"}
{"molecule": "CCS(=O)(=O)N(C)[C@H]1c2cc(C#N)ccc2OC(C)(C)[C@@H]1O (racemic) [Chromanol 293B]", "measured": "dose-dependent decrease"}
{"molecule": "Cc1cccc(CCN2CCC(C(=O)c3ccc(NS(C)(=O)=O)cc3)CC2)n1", "measured": "dose-dependent decrease"}
{"molecule": "CC(C)NCC(O)COc1cccc2ccccc12 (centres unmarked)", "measured": "dose-dependent decrease"}
